All values here come from patent US20250215412A1.

For each of the binders below, state its Leakage activity.
# tested_system: T1, Chryseobacterium sp-62563 deamidase polypeptide (second polypeptide, deamidase domain), wildtype (Chryseobacterium sp-62563)
# T1 sequence: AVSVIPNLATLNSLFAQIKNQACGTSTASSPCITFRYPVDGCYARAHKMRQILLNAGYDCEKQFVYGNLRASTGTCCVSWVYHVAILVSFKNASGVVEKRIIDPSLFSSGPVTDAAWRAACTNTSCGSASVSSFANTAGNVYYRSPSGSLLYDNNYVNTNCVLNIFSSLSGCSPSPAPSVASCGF
# procedure_details: cell-based or functional assay
API: value field is a number in %; no unit string.

Lookup: Given the binder Chryseobacterium sp-62563 propeptide N1C (protein) CQDPNLVAKESNETAMKDFGKTVPVGIEKEDGKFKISFMVTAQPYEIKDSKENAAYISMIKTAVENETPIHVFLKANTNEIAKVDKATDDDIRYFKSVFTKEVKEENRK , what is its reported Leakage activity?
Found: 0

Lookup: Given the binder Chryseobacterium sp-62563 propeptide F99C (protein) NQDPNLVAKESNETAMKDFGKTVPVGIEKEDGKFKISFMVTAQPYEIKDSKENAAYISMIKTAVENETPIHVFLKANTNEIAKVDKATDDDIRYFKSVCTKEVKEENRK , what is its reported Leakage activity?
Found: 0
